# Tgt: Solute carrier organic anion transporter family member 1B3 (Homo sapiens)
# Sequence (Q9NPD5 whole entry): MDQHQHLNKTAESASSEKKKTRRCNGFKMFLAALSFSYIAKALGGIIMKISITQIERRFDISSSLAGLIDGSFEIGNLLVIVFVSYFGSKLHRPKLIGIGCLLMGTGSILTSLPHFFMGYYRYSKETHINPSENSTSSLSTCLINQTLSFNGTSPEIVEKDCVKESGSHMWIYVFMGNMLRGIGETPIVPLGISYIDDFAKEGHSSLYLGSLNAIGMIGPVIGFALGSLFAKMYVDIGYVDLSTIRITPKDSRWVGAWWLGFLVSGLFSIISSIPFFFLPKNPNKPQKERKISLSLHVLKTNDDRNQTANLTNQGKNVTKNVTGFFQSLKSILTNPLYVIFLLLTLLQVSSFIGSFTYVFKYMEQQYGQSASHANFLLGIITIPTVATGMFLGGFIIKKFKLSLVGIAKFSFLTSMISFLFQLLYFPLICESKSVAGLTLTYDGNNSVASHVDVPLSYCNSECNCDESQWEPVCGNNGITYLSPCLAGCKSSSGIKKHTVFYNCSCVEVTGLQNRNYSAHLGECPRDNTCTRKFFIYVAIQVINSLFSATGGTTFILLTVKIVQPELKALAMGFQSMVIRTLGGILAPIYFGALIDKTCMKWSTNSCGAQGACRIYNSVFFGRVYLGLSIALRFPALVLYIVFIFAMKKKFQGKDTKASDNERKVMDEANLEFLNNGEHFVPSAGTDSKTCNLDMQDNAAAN
# Condition: chinese hamster, cho, 10 µM
Quantity: residual activity (%)
Report the figure in % without appending any unit label.

Compound	residual activity / %
CN(C)CCCO[C@@H]1[C@H]2OC(C)(C)O[C@H]2O[C@@H]1[C@H](O)CO	95.1

Let us move to another entry and its residual activity.
Entry O=C(O)CCc1nc(-c2ccccc2)c(-c2ccccc2)o1 has what residual activity?
71.47

The measurements presented in this section are drawn from ChEMBL document CHEMBL3039007.
